- PROCEDURE TEXT: Pharmacokinetic study in minipigs (i.v.)
- Format: in vivo, Göttingen minipigs
- CONDITION INFO: female, Göttingen, minipig, plasma, iv; i.v. administration to minipigs, 2 nmol/kg; read-out: Terminal half-life t1/2 (converted)
- Protocol: This is done in a pharmacokinetic (PK) study, where the terminal half-life (t1/2) of the compound or derivative in question is determined. […] Plasma was within 30 min after centrifugation pipetted into Micronic tubes stored on dry ice and were afterwards kept at −20° C. until analysed for plasma concentration of the compounds using LCMS. Plasma concentrations of the peptides of the invention were assayed by plasma protein precipitation and analysed by liquid chromatography mass spectrometry (LC-MS). […]
Numbered stars: 1 amine (or outer) side, 2 acyl side, 3 side chain; on linkers, the order of the positions; unused ones are H or OH. Square brackets hold non-standard residues; d marks the D form. Side chains are listed from the residue outwards. * marks the point of attachment. C18 diacid = O=C(O)CCCCCCCCCCCCCCCCC(=O)*; γGlu = O=C(O)[C@H](CCC(=O)[*:2])N[*:1]; AEEA = NCCOCCOCC(=O)O; Aib = CC(C)(N)C(=O)O
Reported half-life values for a set of substances
Give your result in h as a bare value.

Worked cases, half-life given:
Y[Aib]EGTFTSDYSILLEEQAAREFIEWLLAGGPSSGAGQAPGQAPGASHLSTAQTQRLSAELHRLATLPK([AEEA-AEEA-γGlu-C18 diacid])TETGSGSP-NH2 [Compound 57]    90
H[Aib]HGTFTSDYSILLEEQAAREFIEWLLAGGPSK([AEEA-AEEA-γGlu-C18 diacid])GEASQLSTAALGRLSAELHQLATLPRTETGSGSP-NH2 [Compound 64]    117
Y[Aib]EGTFTSDYSILLEEQAAREFIEWLLAGGPSRGEASHLSTAQTQRLSAELHK([AEEA-AEEA-γGlu-C18 diacid])LATLPRTETGSGSP-NH2 [compound 68]    125
H[Aib]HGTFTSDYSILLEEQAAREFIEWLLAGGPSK([AEEA-AEEA-γGlu-C18 diacid])GAPPPSGGGEASELSTAALGRLSAELHELATLPRTETGSGSP-NH2 [Compound 15]    122

# context switch: different substance, same half-life
Prompt line: Returns the measured half-life for the input substance. Input: Y[Aib]EGTFTSDYSILLEEQAAREFIEWLLAGGPSSGAGQAPGQAPGASHLSTAQTQRLSAK([AEEA-AEEA-γGlu-C18 diacid])LHRLATLPRTETGSGSP-NH2 [compound 55]
Response line: 88
